Target: Recombinant human ATX (Homo sapiens (Human))
Test: ATX inhibition assay (choline release, Amplex Red fluorescence)
Conditions: ATX 10 nM, LPC 18:1 10 μM, 37° C., 20 min pre-incubation; mean of n≧2
pIC50: −log10 of the molar value.
REPORTED METRIC: pIC50

Item "Cc1nnn(Cc2cccc(F)c2/C=C/C(=O)N2CCC(Cc3nnc(C)o3)CC2)n1" : provide pIC50 6.27

[P] Cc1nnn(Cc2cc(C(F)(F)F)ccc2/C=C/C(=O)N2CCCC[C@H]2C(F)(F)F)n1
[Q] Cc1nnn(Cc2cc(Cl)ccc2/C=C/C(=O)N2CCC(F)C2)n1 (centres unmarked)
Lower pIC50: P or Q ? Answer by stating the label of the chosen item. Q

[I] Cc1nnn(Cc2cc(C(F)(F)F)ccc2/C=C/C(=O)N2CCC(NC(=O)CCCCCc3cnn[nH]3)CC2)n1
[II] C/C(=C\C(=O)N1CCC(c2nnc(C)o2)CC1)c1ccc(Cl)cc1Cn1nnc(C)n1
[III] Cc1nnn(Cc2cc(Cl)ccc2/C=C/C(=O)N2CC3CCC2CN3Cc2coc(C)n2)n1 (centres unmarked)
Ordering criterion: pIC50; begin with the maximum. In plain terms: list the labels in the order you were asked to. I, III, II

[1] Cc1nnn(Cc2cc(Cl)ccc2/C=C/C(=O)N2CCC(c3nnc(CC4CCOCC4)o3)CC2)n1
[2] Cc1cnn(Cc2cc(Cl)ccc2/C=C/C(=O)N2CCC(Cc3nnc(C)o3)CC2)n1
Lower pIC50: 1 or 2 ? Answer by stating the label of the chosen item. 2
(2: 6.34, 1: 8.28)

Reference source: patent US9763957B2
